assay_details: logP determination by HPLC (formic acid method)
Assay type: physicochemical
condition_summary: reversed-phase HPLC column (C18), pH 3.4, HPLC on reversed-phase column (C18), acidic range (pH 3.4), 55° C.; read-out: logP (HCOOH)
readout_kind: chromatographic logP

Field: example entries. Status: answers known.
compound: CCOCCNC(=O)n1ccc(-c2sc(-c3cccnc3)nc2C)n1
measured_number: 2.2

compound: COC(=O)c1oc(-c2sc(-c3cccnc3)nc2C)nc1C
measured_number: 2.55

compound: Cc1nc(-c2cccnc2)sc1-c1cccc(Cl)n1
measured_number: 2.66

compound: Cc1nc(-c2cccnc2)sc1-c1ccn(C(=O)NCC(C)C)n1
measured_number: 2.89

compound: Cc1nc(-c2cccnc2)sc1-c1ccn(C(=O)NC2CC2)n1
measured_number: 2.08

compound: Cc1cccc(-c2csc(-c3sc(-c4cccnc4)nc3C)n2)n1
measured_number: 2.66

a: Cc1nc(-c2cccnc2)sc1-c1nc(C(=O)NC(C)C2CC2)cs1 (stereo not drawn)
b: Cn1nc(-c2cccnc2)cc1-c1cccnc1
c: c1cncc(-c2ncc(-c3cccc(-n4ccnn4)n3)s2)c1
List from greatest to least chromatographic logP. Please respond with the labels ordered as the question requires.
a, c, b
(a: 2.69, c: 1.85, b: 0.89)
